Measured inhibition of individual entries
- Target system: UniProtKB Q16539
- Sequence (Q16539 whole entry, looked up): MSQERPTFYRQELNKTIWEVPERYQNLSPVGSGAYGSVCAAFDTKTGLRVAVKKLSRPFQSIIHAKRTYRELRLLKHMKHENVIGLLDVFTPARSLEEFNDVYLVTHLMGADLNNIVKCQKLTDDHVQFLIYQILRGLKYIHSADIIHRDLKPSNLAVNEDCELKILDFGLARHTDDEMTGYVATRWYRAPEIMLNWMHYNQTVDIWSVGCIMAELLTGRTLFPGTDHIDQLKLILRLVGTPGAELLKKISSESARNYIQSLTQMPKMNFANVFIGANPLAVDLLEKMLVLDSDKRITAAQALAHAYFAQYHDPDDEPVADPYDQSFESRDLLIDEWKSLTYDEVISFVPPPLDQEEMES
- Assay overview: Inhibition of MAPK14 Kinase Activity by PHAS-I Assay
- Condition info: concentration not given here
Readout label: inhibition

INSERT INTO assay_data (compound, readout_label, measured_result) VALUES
  ('O=C(NCCc1[nH]nc(-c2ccc(F)cc2)c1-c1ccncc1)c1cccnc1', 'inhibition', '58%'),
  ('Cc1c(-c2ccncc2)c(-c2ccc(F)cc2)nn1CC(=O)NC(C)CCc1ccccc1 (stereo not drawn)', 'inhibition', '35%'),
  ('CCCCOc1ccc(NC(=O)NCc2[nH]nc(-c3ccc(F)cc3)c2-c2ccncc2)cc1', 'inhibition', '42%'),
  ('O=C(NCCc1[nH]nc(-c2ccc(F)cc2)c1-c1ccncc1)Nc1ccc(C(F)(F)F)cc1', 'inhibition', '82%'),
  ('COC(=O)C(=O)NCc1[nH]nc(-c2ccc(F)cc2)c1-c1ccncc1', 'inhibition', '89%'),
  ('CCOC(=O)N1CCC(NC(=O)Cn2nc(-c3ccc(F)cc3)c(-c3ccncc3)c2C)CC1', 'inhibition', '72%'),
  ('Cc1c(-c2ccncc2)c(-c2ccc(F)cc2)nn1CC(=O)N(CCc1ccccc1)CCc1ccccn1', 'inhibition', '43%'),
  ('C=CCOC(=O)NCCc1[nH]nc(-c2ccc(F)cc2)c1-c1ccncc1', 'inhibition', '86%'),
  ('COc1ccc(OC)c(NC(=O)NCc2[nH]nc(-c3ccc(F)cc3)c2-c2ccncc2)c1', 'inhibition', '39%'),
  ('CC(C)=CC(=O)NCCc1[nH]nc(-c2ccc(F)cc2)c1-c1ccncc1', 'inhibition', '67%'),
  ('CCN(CC)C(=O)Cn1nc(-c2ccc(F)cc2)c(-c2ccncc2)c1C', 'inhibition', '54%'),
  ('O=S(=O)(NCCc1[nH]nc(-c2ccc(F)cc2)c1-c1ccncc1)c1ccc(F)cc1F', 'inhibition', '88%'),
  ('CC(C)S(=O)(=O)NCCc1[nH]nc(-c2ccc(F)cc2)c1-c1ccncc1', 'inhibition', '77%'),
  ('CS(=O)(=O)NCCc1[nH]nc(-c2ccc(F)cc2)c1-c1ccncc1', 'inhibition', '89%'),
  ('O=C(NCCc1[nH]nc(-c2ccc(F)cc2)c1-c1ccncc1)c1ccccc1I', 'inhibition', '65%'),
  ('Cc1c(-c2ccncc2)c(-c2ccc(F)cc2)nn1CC(=O)N1CCCCC1', 'inhibition', '78%'),
  ('COCCN(Cc1cccc(OC)c1)C(=O)Cn1nc(-c2ccc(F)cc2)c(-c2ccncc2)c1C', 'inhibition', '37%'),
  ('Cc1ccc(S(=O)(=O)NCCCc2[nH]nc(-c3ccc(F)cc3)c2-c2ccncc2)cc1', 'inhibition', '68%'),
  ('COc1cccc(CC(=O)NCCCc2[nH]nc(-c3ccc(F)cc3)c2-c2ccncc2)c1', 'inhibition', '92%'),
  ('O=C(NCCc1[nH]nc(-c2ccc(F)cc2)c1-c1ccncc1)c1cccc(Br)c1', 'inhibition', '0%'),
  ('CNC(=O)NCCCc1[nH]nc(-c2ccc(F)cc2)c1-c1ccncc1', 'inhibition', '84%'),
  ('O=C(NCCCc1[nH]nc(-c2ccc(F)cc2)c1-c1ccncc1)c1cccc(Br)c1', 'inhibition', '70%'),
  ('CCCS(=O)(=O)NCCCc1[nH]nc(-c2ccc(F)cc2)c1-c1ccncc1', 'inhibition', '92%'),
  ('O=C(NCCc1[nH]nc(-c2ccc(F)cc2)c1-c1ccncc1)Nc1cc(Cl)ccc1Cl', 'inhibition', '61%'),
  ('CC[C@H](NC(=O)Cn1nc(-c2ccc(F)cc2)c(-c2ccncc2)c1C)c1ccccc1', 'inhibition', '48%'),
  ('COC(=O)[C@H](CCSC)NC(=O)Cn1nc(-c2ccc(F)cc2)c(-c2ccncc2)c1C', 'inhibition', '58%'),
  ('O=C(NCc1[nH]nc(-c2ccc(F)cc2)c1-c1ccncc1)Nc1ccc(I)cc1', 'inhibition', '27%'),
  ('O=C(NCCc1[nH]nc(-c2ccc(F)cc2)c1-c1ccncc1)c1ccccn1', 'inhibition', '52%'),
  ('O=S(=O)(NCc1[nH]nc(-c2ccc(F)cc2)c1-c1ccncc1)c1cc2nnoc2c2ccccc12', 'inhibition', '50%'),
  ('Cc1c(-c2ccncc2)c(-c2ccc(F)cc2)nn1CC(=O)Nc1ccc(C2CCCCC2)cc1', 'inhibition', '87%'),
  ('CCN(CC)CCN(CCN(CC)CC)C(=O)Cn1nc(-c2ccc(F)cc2)c(-c2ccncc2)c1C', 'inhibition', '47%'),
  ('Cc1c(-c2ccncc2)c(-c2ccc(F)cc2)nn1CC(=O)Nc1ccccc1C(=O)NC1CCCCC1', 'inhibition', '87%'),
  ('COc1cc(NC(=O)NCCc2[nH]nc(-c3ccc(F)cc3)c2-c2ccncc2)cc(OC)c1OC', 'inhibition', '56%'),
  ('Cc1c(-c2ccncc2)c(-c2ccc(F)cc2)nn1CC(=O)Nc1ccccc1Cc1ccccc1', 'inhibition', '92%'),
  ('Cc1c(-c2ccncc2)c(-c2ccc(F)cc2)nn1CC(=O)N(CCC#N)CC1CCCO1 (stereo not drawn)', 'inhibition', '58%'),
  ('CCCN(CCC)CC(C)NC(=O)Cn1nc(-c2ccc(F)cc2)c(-c2ccncc2)c1C (stereo not drawn)', 'inhibition', '17%'),
  ('O=C(NCCCc1[nH]nc(-c2ccc(F)cc2)c1-c1ccncc1)c1ccc(F)cc1', 'inhibition', '64%'),
  ('Cc1c(-c2ccncc2)c(-c2ccc(F)cc2)nn1CC(=O)Nc1ccccc1Oc1ccc(Cl)cc1', 'inhibition', '86%');

Origin of values: the Kinase Knowledgebase extract (Sharma et al. 2016)
